# Tested on: 519858-162-T-J1-PDC complex spheroid growth, % test/control
# Assay summary: Anticancer human tumor 519858-162-T-J1-PDC patient-derived colon adenocarcinoma cell line growth inhibition [Asc]
# Experimental conditions: second compound 3.16 µM; first compound 10 µM; stronger effect = lower value
Metric name: viability, T/C (%)
The answer is to be given in %; state only the numeric part.

I looked up C=C(F)C(=O)N1CCN(c2nc(OCC3CCCN3C)nc3c2CCN(c2cccc4cccc(Cl)c24)C3)CC1CC#N (stereo unspecified) + Cc1c(S(C)(=O)=O)c(-c2cc(F)cc(N3CCN(c4ccc(NS(=O)(=O)c5ccc(NC(CCN6CCC(C(=O)OCCCP(=O)(O)O)CC6)CSc6ccccc6)c(S(=O)(=O)C(F)(F)F)c5)cc4)CC3)c2)c(-c2ccc(Cl)cc2)n1C(C)C and its viability, T/C for 519858-162-T-J1-PDC complex spheroid growth, % test/control was 13.5

----------
# System: 519858-162-T-J1-PDC complex spheroid growth, % test/control
# Assay summary: Anticancer human tumor 519858-162-T-J1-PDC cell line growth inhibition [Asc];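 also: seven day drug exposure begun three days after spheroid seeding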;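 as to viability, T/C: 100% = DMSO vehicle wells and lower values mean less viable spheroid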
# Experimental conditions: second compound 1 µM; first compound 1 µM; stronger effect = lower value
Metric name: viability, T/C (%)
The answer is to be given in %; state only the numeric part.

Solved cases (2 shown):
The compound listed as C=C(F)C(=O)N1CCN(c2nc(OCC3CCCN3C)nc3c2CCN(c2cccc4cccc(Cl)c24)C3)CC1CC#N (stereo not drawn) + CNC(C)C(=O)NC1CN(S(=O)(=O)c2cccc(S(=O)(=O)N3CCC4CCC(C(=O)NC(c5ccccc5)c5ccccc5)N4C(=O)C(NC(=O)C(C)NC)C3)c2)CCC2CCC(C(=O)NC(c3ccccc3)c3ccccc3)N2C1=O has a reported viability, T/C of 92.6

The compound listed as CNC(C)C(=O)NC1CN(S(=O)(=O)c2cccc(S(=O)(=O)N3CCC4CCC(C(=O)NC(c5ccccc5)c5ccccc5)N4C(=O)C(NC(=O)C(C)NC)C3)c2)CCC2CCC(C(=O)NC(c3ccccc3)c3ccccc3)N2C1=O (stereo not drawn) + Cc1c(S(C)(=O)=O)c(-c2cc(F)cc(N3CCN(c4ccc(NS(=O)(=O)c5ccc(NC(CCN6CCC(C(=O)OCCCP(=O)(O)O)CC6)CSc6ccccc6)c(S(=O)(=O)C(F)(F)F)c5)cc4)CC3)c2)c(-c2ccc(Cl)cc2)n1C(C)C has a reported viability, T/C of 68.9

Now turn to the next compound.
The compound listed as O=C(c1cc(Cc2n[nH]c(=O)c3ccccc23)ccc1F)N1CCN(C(=O)C2CC2)CC1 + Cc1c(S(C)(=O)=O)c(-c2cc(F)cc(N3CCN(c4ccc(NS(=O)(=O)c5ccc(NC(CCN6CCC(C(=O)OCCCP(=O)(O)O)CC6)CSc6ccccc6)c(S(=O)(=O)C(F)(F)F)c5)cc4)CC3)c2)c(-c2ccc(Cl)cc2)n1C(C)C has a reported viability, T/C of 73.8

----------
# Test system: 519858-162-T-J1-PDC complex spheroid growth, % test/control
# Assay summary: Anticancer human tumor 519858-162-T-J1-PDC cell line growth inhibition [Asc];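 also: seven day drug exposure begun three days after spheroid seeding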;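 as to viability, T/C: 100% = DMSO vehicle wells and lower values mean less viable spheroid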
# Experimental conditions: second compound 0.0316 µM; first compound 0.0316 µM; stronger effect = lower value
Metric name: viability, T/C (%)
The answer is to be given in %; state only the numeric part.

Solved cases (2 shown):
I looked up Cn1ncnc1[C@H]1c2n[nH]c(=O)c3cc(F)cc(c23)N[C@@H]1c1ccc(F)cc1 + CNC(C)C(=O)NC1CN(S(=O)(=O)c2cccc(S(=O)(=O)N3CCC4CCC(C(=O)NC(c5ccccc5)c5ccccc5)N4C(=O)C(NC(=O)C(C)NC)C3)c2)CCC2CCC(C(=O)NC(c3ccccc3)c3ccccc3)N2C1=O and its viability, T/C for 519858-162-T-J1-PDC complex spheroid growth, % test/control was 102

I looked up C#Cc1c(F)ccc2cc(O)cc(-c3ncc4c(N5CC6CCC(C5)N6)nc(OCC56CCCN5CC(F)C6)nc4c3F)c12 (stereo not drawn) + CNC(C)C(=O)NC1CN(S(=O)(=O)c2cccc(S(=O)(=O)N3CCC4CCC(C(=O)NC(c5ccccc5)c5ccccc5)N4C(=O)C(NC(=O)C(C)NC)C3)c2)CCC2CCC(C(=O)NC(c3ccccc3)c3ccccc3)N2C1=O and its viability, T/C for 519858-162-T-J1-PDC complex spheroid growth, % test/control was 96.5

Now turn to the next compound.
I looked up CCN1CCN(Cc2ccc(Nc3ncc(F)c(-c4cc(F)c5nc(C)n(C(C)C)c5c4)n3)nc2)CC1 + Cc1c(S(C)(=O)=O)c(-c2cc(F)cc(N3CCN(c4ccc(NS(=O)(=O)c5ccc(NC(CCN6CCC(C(=O)OCCCP(=O)(O)O)CC6)CSc6ccccc6)c(S(=O)(=O)C(F)(F)F)c5)cc4)CC3)c2)c(-c2ccc(Cl)cc2)n1C(C)C and its viability, T/C for 519858-162-T-J1-PDC complex spheroid growth, % test/control was 62.9

----------
# Tested on: 519858-162-T-J1-PDC complex spheroid growth, % test/control
# Assay summary: Anticancer human tumor 519858-162-T-J1-PDC cell line growth inhibition [Asc];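 also: seven day drug exposure begun three days after spheroid seeding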
# Experimental conditions: curve of first compound; second compound 0.03 µM
Item-by-item account of IC50

Solved cases (2 shown):
I looked up C=C(F)C(=O)N1CCN(c2nc(OCC3CCCN3C)nc3c2CCN(c2cccc4cccc(Cl)c24)C3)CC1CC#N (centres undefined) + CCN1C(C(=O)NC23CCC(C(=O)O)(CC2)CC3)C(c2cccc(Cl)c2F)C2(C(=O)Nc3cc(Cl)ccc32)C12CCCCC2 and its IC50 for 519858-162-T-J1-PDC complex spheroid growth, % test/control was > 10 µM

I looked up CCN1CCN(Cc2ccc(Nc3ncc(F)c(-c4cc(F)c5nc(C)n(C(C)C)c5c4)n3)nc2)CC1 + CCN1C(C(=O)NC23CCC(C(=O)O)(CC2)CC3)C(c2cccc(Cl)c2F)C2(C(=O)Nc3cc(Cl)ccc32)C12CCCCC2 and its IC50 for 519858-162-T-J1-PDC complex spheroid growth, % test/control was > 1 µM

Others:
I looked up C=CC(=O)N1CCN(c2nc(=O)n(-c3c(C)ccnc3C(C)C)c3nc(-c4c(O)cccc4F)c(F)cc23)C(C)C1 (centres undefined) + CCN1C(C(=O)NC23CCC(C(=O)O)(CC2)CC3)C(c2cccc(Cl)c2F)C2(C(=O)Nc3cc(Cl)ccc32)C12CCCCC2 and its IC50 for 519858-162-T-J1-PDC complex spheroid growth, % test/control was > 10 µM

I looked up CNC(C)C(=O)NC1CN(S(=O)(=O)c2cccc(S(=O)(=O)N3CCC4CCC(C(=O)NC(c5ccccc5)c5ccccc5)N4C(=O)C(NC(=O)C(C)NC)C3)c2)CCC2CCC(C(=O)NC(c3ccccc3)c3ccccc3)N2C1=O (centres undefined) + CCN1C(C(=O)NC23CCC(C(=O)O)(CC2)CC3)C(c2cccc(Cl)c2F)C2(C(=O)Nc3cc(Cl)ccc32)C12CCCCC2 and its IC50 for 519858-162-T-J1-PDC complex spheroid growth, % test/control was > 1 µM

----------
# Tested on: 519858-162-T-J1-PDC complex spheroid growth, % test/control
# Assay summary: Anticancer human tumor 519858-162-T-J1-PDC cell line growth inhibition [Asc];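 also: seven day drug exposure begun three days after spheroid seeding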;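 as to viability, T/C: 100% = DMSO vehicle wells and lower values mean less viable spheroid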
# Experimental conditions: second compound 0.316 µM; first compound 3 µM; stronger effect = lower value
Item-by-item account of viability, T/C
The answer is to be given in %; state only the numeric part.

Solved cases (2 shown):
I looked up Cc1nc(N2CCC3(CC2)COC(C)C3N)c(CO)nc1Sc1ccnc(N)c1Cl (stereo not drawn) + Cc1c(S(C)(=O)=O)c(-c2cc(F)cc(N3CCN(c4ccc(NS(=O)(=O)c5ccc(NC(CCN6CCC(C(=O)OCCCP(=O)(O)O)CC6)CSc6ccccc6)c(S(=O)(=O)C(F)(F)F)c5)cc4)CC3)c2)c(-c2ccc(Cl)cc2)n1C(C)C and its viability, T/C for 519858-162-T-J1-PDC complex spheroid growth, % test/control was 50.5

I looked up CCN1C(C(=O)NC23CCC(C(=O)O)(CC2)CC3)C(c2cccc(Cl)c2F)C2(C(=O)Nc3cc(Cl)ccc32)C12CCCCC2 (stereo not drawn) + Cc1c(S(C)(=O)=O)c(-c2cc(F)cc(N3CCN(c4ccc(NS(=O)(=O)c5ccc(NC(CCN6CCC(C(=O)OCCCP(=O)(O)O)CC6)CSc6ccccc6)c(S(=O)(=O)C(F)(F)F)c5)cc4)CC3)c2)c(-c2ccc(Cl)cc2)n1C(C)C and its viability, T/C for 519858-162-T-J1-PDC complex spheroid growth, % test/control was 54.1

Others:
I looked up CCN1C(C(=O)NC23CCC(C(=O)O)(CC2)CC3)C(c2cccc(Cl)c2F)C2(C(=O)Nc3cc(Cl)ccc32)C12CCCCC2 (stereo not drawn) + CNC(C)C(=O)NC1CN(S(=O)(=O)c2cccc(S(=O)(=O)N3CCC4CCC(C(=O)NC(c5ccccc5)c5ccccc5)N4C(=O)C(NC(=O)C(C)NC)C3)c2)CCC2CCC(C(=O)NC(c3ccccc3)c3ccccc3)N2C1=O and its viability, T/C for 519858-162-T-J1-PDC complex spheroid growth, % test/control was 105

Hey, just so you know, these numbers are from PubChem BioAssay AID1963421.
